Tgt: KRas G12C (Homo sapiens, UniProt P01116, G12C)
Sequence (P01116 1-169 isoform P01116-2 G12C): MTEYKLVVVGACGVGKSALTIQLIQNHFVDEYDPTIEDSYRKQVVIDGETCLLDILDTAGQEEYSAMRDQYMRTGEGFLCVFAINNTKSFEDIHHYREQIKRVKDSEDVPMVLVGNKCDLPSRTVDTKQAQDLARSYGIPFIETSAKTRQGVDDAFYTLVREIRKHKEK
Assay Comment: biochemical;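 note: binding to KRas assessed by TR-FRET displacement after one hour incubation at room temperature, potency fitted from percent-of-control values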
We label by threshold. Values of IC50 strictly beneath 1000 nM are criterion met. Values of 1000 nM and up are criterion not met.

See these solved cases before continuing.
>>> class_label("Fc1c(-c2cccc3cccc(F)c23)ncc2c(N3CCCC(c4nc[nH]n4)C3)nc(OCC34CCCN3CCC4)nc12 (centres unmarked) [Example 30]")
"criterion not met"
>>> class_label("CCc1c(F)ccc2cc(O)cc(-c3ncc4c(N5CCCC6(CNS(=O)(=O)N6)C5)nc(OC[C@@]56CCCN5C[C@H](F)C6)nc4c3F)c12 (some centres unmarked) [Example 330]")
"criterion met"

Lab log: compare recorded IC50 with 1000 nM; is it strictly lower for O=C1NC(=O)C2(CCCN(c3nc(OCC45CCCN4CCC5)nc4c(F)c(-c5cccc6cccc(C(F)F)c56)ncc34)C2)N1 (centres unmarked) [Example 464] ?
criterion met

Consider the compound CCc1c(F)ccc2cc(O)cc(-c3ncc4c(N5CCC[C@@](C)(O)C5)nc(OC[C@@H]5CCCN5C)nc4c3F)c12 [Example 28] . Is its IC50 strictly less than 1000 nM?
criterion met

Field: below-cutoff. Rule: recorded IC50 strictly less than 1000 nM. Subject: NS(=O)(=O)NC1CCCN(c2nc(OCC34CCCN3CCC4)nc3c(F)c(-c4cccc5cccc(F)c45)ncc23)C1 (centres unmarked) [Example 240]
criterion met

Does this compound meet the criterion IC50 < 1000 nM? OCC1CCCN(c2nc(OCC34CCCN3CCC4)nc3c(F)c(-c4cccc5cccc(F)c45)ncc23)C1 (centres unmarked) [Example 113]
criterion not met

Determine if Nc1cc2n(n1)CCN(c1nc(OCC34CCCN3CCC4)nc3c(F)c(-c4cccc5cccc(F)c45)ncc13)C2 [Example 126] shows IC50 strictly lower than 1000 nM.
criterion not met
